Each item that follows carries a reported pIC50.
molecular target: human S1P1 receptors (Homo sapiens); experiment: S1P1R antagonist assay (fluorescent membrane potential dye, cAMP readout); conditions: HEK293 cells expressing human S1P1 receptors and CNG channel; 500 nM NECA; S1P1R agonist 10 nM; 90 minutes; read-out: EC50 or IC50 value
Sequence (P21453 whole entry): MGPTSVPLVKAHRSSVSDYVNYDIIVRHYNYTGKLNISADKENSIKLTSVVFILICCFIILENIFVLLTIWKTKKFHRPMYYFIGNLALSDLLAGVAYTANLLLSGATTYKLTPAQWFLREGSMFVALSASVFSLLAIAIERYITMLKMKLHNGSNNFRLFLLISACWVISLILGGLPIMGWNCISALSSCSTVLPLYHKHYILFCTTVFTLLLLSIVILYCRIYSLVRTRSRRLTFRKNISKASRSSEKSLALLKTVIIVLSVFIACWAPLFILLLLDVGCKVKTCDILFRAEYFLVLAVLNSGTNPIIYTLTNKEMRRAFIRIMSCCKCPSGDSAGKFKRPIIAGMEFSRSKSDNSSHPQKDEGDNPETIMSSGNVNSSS
pIC50: −log10 of the molar value.

Cc1[nH]c2ccccc2c1CC(=O)N1C[C@H](Cc2ccccc2)C[C@H]1C(=O)Nc1ccc(Oc2ccc(F)cc2)cc1 [Compound 37]    ≥ 6.52
COc1ccc([C@@H]2C[C@@H](C(=O)Nc3ccc(Oc4ccc(F)cc4)cc3)N(C(=O)Cn3cncn3)C2)cc1 [Compound 62]    ≥ 6.52
CC(=O)c1ccc(C(=O)NC(COCc2ccccc2)C(=O)Nc2ccc(Oc3ccccc3)cc2)cc1 (stereo not shown) [Compound 396]    < 6.00
O=C(Cc1c[nH]cn1)N[C@@H](COCc1ccccc1)C(=O)Nc1ccc(Oc2ccc(F)cc2)cc1 [Compound 131]    ≥ 6.52
O=C(Nc1ccc(Oc2ccc(F)cc2)cc1)[C@@H]1C[C@H](NCc2ccccc2)CN1C(=O)Cn1cncn1 [Compound 80]    6.00 to 6.52
O=C(Nc1ccc(Oc2ccc(F)cc2)cc1)[C@@H]1C[C@@H](Cc2ccccc2)CN1C(=O)CC(F)(F)F [Compound 34]    ≥ 6.52
Cc1cc(F)ccc1C[C@@H]1C[C@@H](C(=O)Nc2ccc(Oc3ccc(F)cc3)cc2)N(C(=O)Cn2ccnn2)C1 [Compound 6]    ≥ 6.52
O=C(NC(COCc1ccccc1)C(=O)Nc1ccc(Oc2ccccc2)cc1)c1ccc(Cl)cc1F (stereo not shown) [Compound 387]    < 6.00
O=C(CCN1C(=O)c2ccccc2C1=O)NC(COCc1ccccc1)C(=O)Nc1ccc(Oc2ccccc2)cc1 (stereo not shown) [Compound 322]    < 6.00
O=C(Nc1ccc(Oc2ccccc2)cc1)C(COCc1ccccc1)NC(=O)[C@H](O)c1ccccc1Cl (stereo partly shown) [Compound 24]    < 6.00

Query (compound): O=C(NC(COCc1ccccc1)C(=O)Nc1ccc(Oc2ccccc2)cc1)c1ccc(Cl)cc1 (stereo not shown) [Compound 276] ; field requested: pIC50
< 6.00

// repeat for CC(=O)CCC(=O)N1C[C@H](Cc2ccccc2)C[C@H]1C(=O)Nc1ccc(Oc2ccc(F)cc2)cc1 [Compound 123] and report
≥ 6.52

Also CCOc1ccc(C(=O)NC(COCc2ccccc2)C(=O)Nc2ccc(Oc3ccccc3)cc2)cc1 (stereo not shown) [Compound 281] , if possible.
< 6.00

Follow-up entry: O=C(Nc1ccc(Oc2ccc(F)cc2)cc1)[C@@H]1CN(Cc2ccccc2)CCN1C(=O)Cc1cnc[nH]1 [Compound 175]
≥ 6.52

Next compound: O=C(CN1CCOCC1)N[C@@H](COCc1ccccc1)C(=O)Nc1ccc(Oc2ccc(F)cc2)cc1 [Compound 155]
≥ 6.52

Same thing, different compound: O=C(Cc1c[nH]cn1)N[C@@H](COCc1ccccc1)C(=O)Nc1ccc(Oc2nccs2)cc1 [Compound 206]
6.00 to 6.52

Try the compound CCOCCN1CCN(CC(=O)N[C@@H](COCc2ccccc2)C(=O)Nc2ccc(Oc3ccc(F)cc3)cc2)CC1 [Compound 242]
6.00 to 6.52
